assay: yeast display, Sf9 membrane polyspecificity reagent, FACS + sequencing; frameworks hold sequencing errors
MEASURED METRIC: polyreactivity (PSR sort gate)

seq=QVQLVESGGGLVQAGGSLRLRCAPSGFIFIFNAMGWYRQAPGKERELVAAIDTSDDSTYYADSVKGRFTISRDNAKNTVYLQMNSLKPEDTAVYYCAAEELSNYEYWGQGTQVTVSS result="low polyreactivity"
seq=QVQLVESGGGLVQAGGSLRLSCAASGRTFGRYAMGWYRQAPGKERELVATITSGGSTNYADSVKGRFTISRDNAKNTVYLQMNSLKPEDTAVYYCAAEFSPSRWAYSEGALRYNYWGQGTQVNVSS result="low polyreactivity"
seq=QVQLVESGGGLVQAGGSLRLSCAASGFIFKANAMGWYRQAPGKERELVAVITRRGGSTYYADSVKGRFTISRDNAKNTVYLQMNSLKPEDTAVYYCAAKSYTYGYNYWGQGTQVTVSS result="high polyreactivity"
seq=QVQLVESGGGLVQAGGSLRLSCAASGSTFSWYVMGWYRQAPGKERELVAAITRGGGSTYYADSVKGRFTISRDNAKNTVYLQMNSLKPEDAAVYYCNADPGFRSGDYGYSSFDYWGQGTQVTVSS result="low polyreactivity"
seq=QVQLVESGGGLVQAGGSLRLICAASGRIFVYYAMGWYRQAPGKERELVAAISSGGSTYYADSVKGRFTISRDNAKNTVYLQMNSLKPEDTAVYYCAADPQRGRRIGYYWGQGTQVTVSS result="low polyreactivity"
seq=QVQLVESGGGLVQAGGSLRLSCAASGITFFRNARGWYRQAPGKEREFVATISRSSGSTYADSVKGRFTISRDNAKNTVYLQMNSLKPEDTAVYYCAAERTYSDSLSFDHWGQGTQVTVSS result="low polyreactivity"

State its polyreactivity (PSR sort gate): HVQLEESGGGEVQAGGSLRLTCAASGLIYTTYAMGWYRPAPGTERELVAAISRRGSRTYYADSVKGRFTISRDNAKNTVYLQMNSLNPEDTAVYYCNALTGSFKTDSFDYWGQGTQVTVSS
high polyreactivity

Hello, please tell me recorded polyreactivity (PSR sort gate) for this one: QVQLVESGGGLVQAGGSLRLSCAASGSIFYFYAMGWYRQAPGKERELVATITRGGSTYYADSVKGRFTISRDNAKNTVYLQMNSLKPEDTAVYYCAADGWYWTYIVEYWGQGTQVTVSS
high polyreactivity

Give reported polyreactivity (PSR sort gate) value for QVQLVESGGGLVQAGGRLRLSCAASGRTLGVYTMGWYRQAPGKERELVATISYNGGSTYYADSVKGRFTISRDNAKNTVYLQMNSLKPEDTAVYYCAKAYDTTLTYNYWGQGTQVTVSS
low polyreactivity

Specify reported polyreactivity (PSR sort gate) for the sequence shown: QVQLVESGGGLVQAGGSLRLSCAASGRIYYRYGMGWYRQAPGKERELVAAISRTGGSTYYADSVKGRFTISRDNAKNTVYLQMNSLIPEDTAVYYCNATSNYRYDYWGQGTQVTVSS
low polyreactivity

Give a short answer stating reported polyreactivity (PSR sort gate) for QVQLVESGGGLVHAGGSLRLSCAASGITSPYSMGWYRQSPGKERELVAAISSGASTYYADTVKGRFTISRDNAKNTVYLQMNSLKPEVTAVYYCNRVTKRYPNIGNYWGQGTQVTLSS .
high polyreactivity

====

assay: yeast display, Sf9 membrane polyspecificity reagent, FACS + sequencing; frameworks hold sequencing errors
MEASURED METRIC: polyreactivity (PSR sort gate)

Example sequences with recorded polyreactivity (PSR sort gate):
seq=QVQLVESGGGLVQSGGSLRLSCAASGSIFWYNARGWYRQAPGKERELVAAINGGGRTYYADSVKGPFTISRDNAKNTVYLQMNSLKPEDTAVYYCAVDPISQGHMDYGGQGTQVTVSS result="low polyreactivity"
seq=QVQLVESGGGLVQAGGSLRLSCAASGGIFKYYAMGWYRLAPGKERELVAAITSGGNTNYADSVKGRFTISRDNAKNTVYLQMNSLKPEDTAVYYCAARSISRRTWQYNYWGQGTQVTVSS result="high polyreactivity"
seq=QVQLVESGGGLVQAGGSLRLSCAASGFIIGYYAMGWYRQAPGKVREFVAAISRSGGSTYYADSVKGRFTISRDNAKNTVYLQMNSLKPEDTSVYYCAADYQKTYTSKFNYWGQGTQVTVSS result="high polyreactivity"
seq=QVQLVESGGGLDQAGGSLRLSCAASGGTFGLYAMGWYRQAPGKERELVAAITWSDSSTYYADSVKGRFTISRDNAKNTVYFQMNSLKPEDTAVYYCNAVRSTSYGSYNYWGQGTQVTVSS result="low polyreactivity"
seq=QVQLVESGGGLVQAGGSLRLSCASSGRIFVFNAMGWYRPAPGKERELVAAINWSGGTTYYADSVKGRFTISRDNAKNTVYLQMNSVNPEDTAVYYCNAYLNRRMGYWGQGTQVTVSS result="high polyreactivity"

Tell me polyreactivity (PSR sort gate) reported for QVQLVESGGGLVQAGGSLRLSCAASGSIFRTYTMGWYRQAPGKEREFVAAISRSGGSTYYADSVKGRFTISRDNAKNTVYLQMNSLKPEDTAVYYCNARWGLGSYGYWGQGTQVTVTS
high polyreactivity

For the sequence QVQLVESGGGLVQAGGSLRLSCAASGRIFAPKAMGWYRQAPGKERELVATITWSGGSTYYADSVKGRFTISRDNAKNSVYLQMNSLNPEDTAVYYCAAETQIRLWSLQYRYYYWGQGTQVTVSS , give its reported polyreactivity (PSR sort gate).
low polyreactivity

Provenance of the data: the nanobody polyreactivity screen of Harvey et al. (2022)
